- assay-target: T1, macaca GM-CSF (Macaca mulatta (identical in Macaca …, UniProt Q0MUT8 18-144 (Chlorocebus aethiops entry), limits assumed))
- T1 chain: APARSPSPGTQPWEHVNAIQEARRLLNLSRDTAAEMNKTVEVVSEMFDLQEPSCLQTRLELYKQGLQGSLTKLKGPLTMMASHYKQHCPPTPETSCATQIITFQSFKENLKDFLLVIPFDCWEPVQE
- assay-info: cell-based or functional assay
value-kind: Fold improvement of humanized parental 4K21 on macaca (IC50, TF-1 proliferation) (fold)
Could you give me the number in fold? Just the number is fine.

MSB0010602 4K21 (4K21 hVH S55K-T62S hVL S27eY-N28I-H34S-N53R-H93Y) (antibody, V domains shown, IgG) VH: EVQLVESGGGLVQPGGSLRLSCAASGFAFSAYDMSWVRQAPGKRLELVAYISSGGKSFYYPDSVKGRFTISRDNAKNSLYLQMNSLRAEDTAVYYCTRHLGFDYWGQGTLVTVSS VL: DIVMTQSPLSLPVTPGEPASISCRSSQSLVNYIGNTYLSWYLQKPGQSPQLLIYKVSRRFSGVPDRFSGSGSGTDFTLKISRVEAEDVGVYYCSQSTYVPPTFGQGTKVEIK :: 33
humanized parental anti-GM-CSF 4K21 VH3-07.1AL+VK2-A3.2 hIgG1K antibody (MSB0010439) (antibody, V domains shown, Human IgG1 kappa; also called humanized parental 4K21 hVH hVL; parental 4K21) VH: EVQLVESGGGLVQPGGSLRLSCAASGFAFSAYDMSWVRQAPGKRLELVAYISSGGSSFYYPDTVKGRFTISRDNAKNSLYLQMNSLRAEDTAVYYCTRHLGFDYWGQGTLVTVSS VL: DIVMTQSPLSLPVTPGEPASISCRSSQSLVNSNGNTYLHWYLQKPGQSPQLLIYKVSNRFSGVPDRFSGSGSGTDFTLKISRVEAEDVGVYYCSQSTHVPPTFGQGTKVEIK :: 1
anti-GM-CSF 4K21 hIgG1K antibody (MSB0010259), recombinant chimeric 4K21 (antibody, V domains shown, Murine variable domains fused to human constant IgG1 heavy chain and kappa light chain domains) VH: EVQLVESGGGLVKSGGSLKLSCAASGFAFSAYDMSWVRQTPEKRLELVAYISSGGSSFYYPDTVKGRFTISRDNAKNTLYLQMSSLKSEDTAMYYCTRHLGFDYWGQGTTLTVSS VL: DVVMTQTPLSLPVSLGDQASISCRSSQSLVNSNGNTYLHWFLQKPGQSPKLLIYKVSNRFSGVPDRFSGSGSGTDFTLKISRVEAEDLGVYFCSQSTHVPPTFGGGTKLEIK :: 0.7

[ask] Give its Fold improvement of humanized parental 4K21 on macaca (IC50, TF-1 proliferation) value. Item: MSB0010599 4K21 (4K21 hVH S55R-T62S hVL N28I-H34S-N53R-H93Y) (antibody, V domains shown, IgG) VH: EVQLVESGGGLVQPGGSLRLSCAASGFAFSAYDMSWVRQAPGKRLELVAYISSGGRSFYYPDSVKGRFTISRDNAKNSLYLQMNSLRAEDTAVYYCTRHLGFDYWGQGTLVTVSS VL: DIVMTQSPLSLPVTPGEPASISCRSSQSLVNSIGNTYLSWYLQKPGQSPQLLIYKVSRRFSGVPDRFSGSGSGTDFTLKISRVEAEDVGVYYCSQSTYVPPTFGQGTKVEIK
[reply] 15

[ask] Returns the measured Fold improvement of humanized parental 4K21 on macaca (IC50, TF-1 proliferation) for the input binder. Input: MSB0010601 4K21 (4K21 hVH S55K-T62S hVL N28I-H34S-N53R-H93Y) (antibody, V domains shown, IgG; also called optimized 4K21 antibody) VH: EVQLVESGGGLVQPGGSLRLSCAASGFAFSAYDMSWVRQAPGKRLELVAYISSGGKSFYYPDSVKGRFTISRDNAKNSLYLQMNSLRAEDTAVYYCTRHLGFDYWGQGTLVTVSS VL: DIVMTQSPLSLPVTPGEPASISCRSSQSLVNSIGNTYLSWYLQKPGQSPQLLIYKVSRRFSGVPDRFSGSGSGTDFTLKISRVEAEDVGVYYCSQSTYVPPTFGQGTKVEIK
[reply] 15

[ask] What value of Fold improvement of humanized parental 4K21 on macaca (IC50, TF-1 proliferation) has been reported for the following binder? humanized parental 4K21 hVH hVL + H93Y (MS100305-A) (antibody, V domains shown) VH: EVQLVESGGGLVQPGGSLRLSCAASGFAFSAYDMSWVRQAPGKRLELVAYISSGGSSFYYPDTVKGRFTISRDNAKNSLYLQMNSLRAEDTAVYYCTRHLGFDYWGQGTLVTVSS VL: DIVMTQSPLSLPVTPGEPASISCRSSQSLVNSNGNTYLHWYLQKPGQSPQLLIYKVSNRFSGVPDRFSGSGSGTDFTLKISRVEAEDVGVYYCSQSTYVPPTFGQGTKVEIK
[reply] 8

[ask] Record request: Fold improvement of humanized parental 4K21 on macaca (IC50, TF-1 proliferation) value, item MSB0010603 4K21 (4K21 hVH S56V-T62S hVL N28I-H34S-N53R-H93Y) (antibody, V domains shown, IgG) VH: EVQLVESGGGLVQPGGSLRLSCAASGFAFSAYDMSWVRQAPGKRLELVAYISSGGSVFYYPDSVKGRFTISRDNAKNSLYLQMNSLRAEDTAVYYCTRHLGFDYWGQGTLVTVSS VL: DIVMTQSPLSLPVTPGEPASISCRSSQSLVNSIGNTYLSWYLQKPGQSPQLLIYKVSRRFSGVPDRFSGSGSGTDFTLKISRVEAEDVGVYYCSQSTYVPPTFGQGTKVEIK
[reply] 10

[ask] Entry MSB0010595 4K21 (4K21 hVH S56V-T62S hVL S27eY-N28I-H34S-N53R-H93Y) (antibody, V domains shown) VH: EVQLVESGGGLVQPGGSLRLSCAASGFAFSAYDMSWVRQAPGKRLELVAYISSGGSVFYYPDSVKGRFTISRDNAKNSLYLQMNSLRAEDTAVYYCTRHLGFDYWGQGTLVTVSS VL: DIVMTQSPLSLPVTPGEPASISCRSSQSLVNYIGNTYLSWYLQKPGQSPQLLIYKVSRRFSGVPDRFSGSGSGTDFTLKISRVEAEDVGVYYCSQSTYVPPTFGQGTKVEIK : reported Fold improvement of humanized parental 4K21 on macaca (IC50, TF-1 proliferation) = ?
[reply] 18

[ask] Query: Fold improvement of humanized parental 4K21 on macaca (IC50, TF-1 proliferation); subject: MSB0010600 4K21 (4K21 hVH S55R-T62S hVL S27eY-N28I-H34S-N53R-H93Y) (antibody, V domains shown) VH: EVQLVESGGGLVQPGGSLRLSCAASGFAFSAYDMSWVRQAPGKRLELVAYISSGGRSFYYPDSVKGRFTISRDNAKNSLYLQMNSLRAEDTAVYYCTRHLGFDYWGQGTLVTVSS VL: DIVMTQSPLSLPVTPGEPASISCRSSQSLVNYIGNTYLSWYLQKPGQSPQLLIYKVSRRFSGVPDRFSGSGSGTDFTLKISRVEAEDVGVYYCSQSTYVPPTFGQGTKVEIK
[reply] 21

From: patent US20140065163A1
